Cited source for all entries: ChEMBL document CHEMBL1914323

# PROCEDURE DETAILS: Half life in dog at 10 mg/kg, po
# Type: ADME, organism-based, Canis lupus familiaris
# Parameters: dose 10 mg/kg, route oral
# RUN CONDITIONS: in vivo
MEASUREMENT NAME: half-life (h)
Your answer should be a plain number; it is taken to be in h.

Noted for `CN[C@@H]1CCN(c2nc(N)nc3c2oc2ncc(Cl)cc23)C1` : its half-life reads 10.5

---

# PROCEDURE DETAILS: Clearance in rat at 2 mg/kg, iv
# Format: ADME, organism-based
# Parameters: dose 2 mg/kg, route intravenous
# RUN CONDITIONS: in vivo
MEASUREMENT NAME: clearance (mL/min/kg)
Your answer should be a plain number; it is taken to be in mL/min/kg.

Noted for `CN[C@@H]1CCN(c2nc(N)nc3c2oc2ncc(Cl)cc23)C1` : its clearance reads 68.3
